For each entry below, report its reverse-splicing fitness value.
B1: Azoarcus group I ribozyme (parent)
chain: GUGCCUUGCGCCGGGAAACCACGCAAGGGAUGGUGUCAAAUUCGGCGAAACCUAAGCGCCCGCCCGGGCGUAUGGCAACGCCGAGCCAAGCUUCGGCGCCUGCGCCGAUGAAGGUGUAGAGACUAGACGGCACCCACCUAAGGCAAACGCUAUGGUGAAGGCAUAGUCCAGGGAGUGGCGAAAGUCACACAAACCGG

Variants of: B1
Assay: reverse-splicing fitness (ratio to wild type); higher = more active; in vitro selection; Mg2+ level not given

// known answers, use as guide
C82U A111U A120C A145C C169A U176A : 0.00868
C82G A145U C150A U176G : 0.0186
C82G A111G A120G A145C C150G U176G : 0.00368
C82G A111U A120G A145U C169A U176C : 0.0135
A111U A145U C169G U176G : 0.00562

For every item in the list below, what is its measured reverse-splicing fitness?
1. C82A A111U A120C A145C C150A U176C
2. C82G A111C A120U A145U C150G C169G U176C
3. C82A A111U A145G U176G
4. A145U U176A

Resp:
[0.0167, 0.00317, 0.0224, 0.937]
